Assay: basal S. cerevisiae growth modulation, no modifier, primary screen, OD600, strain BY4716, 24 h, basal condition (AID 1173)
Details: OD600, 24 h, higher = more signal, called active from +8 up or from −8 down
Activity calls are given as the source filed them.
Parameter z-score: see the listing below.

In the examples that follow, each entry is paired with its recorded z-score.
INSERT INTO results (compound, quantity_name, measured_result) VALUES
  ('CCCCC=C[C@@H](NC(=O)c1ccc(-c2ccccc2)cc1)c1ccccc1', 'z-score', '-0.447 (inactive)'),
  ('CCCCC(=C=CC[C@@H](O)c1ccccc1OCCO)C[C@@H](O)COCc1ccccc1', 'z-score', '-0.984 (inactive)'),
  ('O=C(CS)NCCCCCNC(=O)[C@@H]1C[C@@H]2C(=O)N3CCC[C@H]3C(=O)N2[C@@H]1c1cccc(OCCO)c1', 'z-score', '0.196 (inactive)');

Form: compound = CO[C@H]1O[C@H](CO)[C@@H](OC(=O)Nc2ccccc2-c2ccccc2)[C@H](OC(=O)Nc2ccc3c(c2)OCO3)[C@H]1OC(=O)Nc1ccc2c(c1)OCO2 ; z-score = 1.66 (inactive)

Record summary for C=CCC(OC(C)=O)[C@@H]1[C@@H](N(Cc2ccc(-c3cccc(C(F)(F)F)c3)o2)C(=O)c2ccc(-c3ccccc3)cc2)c2cc(OCCCO)ccc2N1C(=O)c1ccc2ccccc2n1 (some centres not stated) : reported z-score = 1.59 (inactive)

Value of z-score reported for the compound Cc1cc(C)c(C(O)C2C=CC3C(=O)NC(=O)C3N2Nc2ccc(Cl)cc2Cl)c(C)c1 (configuration not stated) is -3.83 (inactive)

Note to self: z-score recorded for Cc1ccc(S[C@]2(C(=O)NCC(F)(F)F)CC(=O)N(Cc3ccccc3C(F)(F)F)[C@@H]2c2ccc(CO)cc2I)cc1 was -3.66 (inactive)

Entry COc1ccc([Si](C)(C)[C@@H]2[C@@H](CC(=O)N3Cc4ccccc4C[C@H]3CO)O[C@]3(C(=O)N(C)c4ccccc43)[C@H]2C)cc1 ; z-score = -2.33 (inactive)

Record summary for CC(C)C(=C=CC[C@H](O)c1ccc(OCCO)cc1)C[C@H](O)c1ccccn1 : reported z-score = -1.7 (inactive)

Please fill in: z-score reported for COCCCNC(=O)[C@@]1(Cc2ccccc2N=[N+]=[N-])COC(c2ccc(OCCCO)cc2)=N1 = -1.68 (inactive)

Please fill in: z-score reported for COc1ccc([Si](C)(C)[C@@H]2[C@@H](CC(=O)N(CCO)Cc3ccccc3)O[C@]3(C(=O)N(c4ccccc4)c4ccccc43)[C@H]2C)cc1 = -1.74 (inactive)

Per the records, this compound ( CN1C(=O)C2C=CC(C(O)c3ccccn3)N(N(c3ccccc3)c3ccccc3)C2C1=O (configuration not stated) ) has z-score equal to 0.527 (inactive)

###

Experiment: cell viability in Huh7 cells, primary screen, cytotoxicity control for HCV replication inhibitor project, CellTiter-Glo luminescence, basal, 48 h (AID 1143);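 further: Huh7 hepatoma cells carrying a hepatitis C replication reporter with no stimulus; test concentration not given here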
Details: Huh7 HCV replicon, higher = more signal, called active from +8 up or from −8 down
quantity name: z-score
Hey, just send me the number, nothing else.

INSERT INTO assay_data (molecule, measured_result) VALUES
  ('O[C@@H](Cc1ccccc1)[C@@H](/C=C/C1CC1)N(CC#Cc1ccccc1)Cc1cccc(Cl)c1', -1.09),
  ('CC[C@H]1C2=C3C(CC[C@H]4C(OCc5ccc(F)cc5C(F)(F)F)OC[C@](C)([C@@H]34)N(C(=O)OC(C)(C)C)C2)C(COC)C1COC (stereo partly drawn)', 0.0724);

Here's the next entry for you.
The molecule listed as O=C1O[C@H](c2ccccc2)[C@H](c2ccccc2)N2[C@H]1[C@@H](C(=O)N1CCN(c3ncccn3)CC1)[C@]1(C(=O)Nc3ccc(C#CC4(O)CCCCCC4)cc31)[C@H]2c1ccc(OCCO)cc1 has a reported z-score of -0.69
